biological target: UniProtKB P20444; test: PKC binding affinity
What Ki was measured for each of the following?
Kindly provide the numeric value in µM only, without the unit symbol.

State its Ki: CC(=O)SCCCCCCCOc1ccc2c(c1)N(C)C(C(C)C)C(=O)NC(CO)C2 (centres unmarked) 0.0045

Write down Ki measured for item `CC(C)[C@H]1C(=O)N[C@H](CO)Cc2ccc(O)cc2N1C` 4.84
